This collection of values is drawn from ChEMBL document CHEMBL1136795.

- TESTED SYSTEM: Cyclin-dependent kinase 2 (Homo sapiens, UniProt P24941)
MEASURED ATTRIBUTE: IC50 (µM)

>>> data_value("CN1CCC(c2c(O)cc(O)c3c(=O)cc(Sc4ccccc4Cl)oc23)C(O)C1 (stereo unspecified)")
2.1
